# measurement.target: 5HT2 receptors (Rattus norvegicus, UniProt P14842)
# Sequence (P14842 whole entry): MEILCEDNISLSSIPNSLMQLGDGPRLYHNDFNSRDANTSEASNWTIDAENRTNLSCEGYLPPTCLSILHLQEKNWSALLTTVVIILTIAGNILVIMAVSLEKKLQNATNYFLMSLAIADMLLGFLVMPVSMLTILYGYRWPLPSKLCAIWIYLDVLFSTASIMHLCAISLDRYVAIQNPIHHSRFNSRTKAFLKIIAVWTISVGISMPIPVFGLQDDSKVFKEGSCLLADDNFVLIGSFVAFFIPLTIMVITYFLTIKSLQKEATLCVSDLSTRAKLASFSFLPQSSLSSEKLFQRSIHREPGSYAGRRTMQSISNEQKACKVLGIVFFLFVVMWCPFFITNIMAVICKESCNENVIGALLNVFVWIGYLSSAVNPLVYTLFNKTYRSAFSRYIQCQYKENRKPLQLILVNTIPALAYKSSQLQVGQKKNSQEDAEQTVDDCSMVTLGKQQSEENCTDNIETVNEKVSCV
pIC50: −log10 of the molar value.
observed.property: pIC50

1. Cc1ccc2[nH]c3c(c2c1)CN(CCc1c(C)nc2scc(C)n2c1=O)CC3    9.40
2. Cc1nc2n(c(=O)c1CCN1CCc3c(c4cc(F)ccc4n3-c3ccc(F)cc3)C1)CCS2    8.74
3. Cc1nc2ccccn2c(=O)c1CCN1CCc2[nH]c3ccc(Cl)cc3c2C1    8.91
4. Cc1nc2sccn2c(=O)c1CCN1CCc2[nH]c3cc(Cl)ccc3c2C1    8.12
5. COc1ccc2[nH]c3c(c2c1)CN(CCc1c(C)nc2n(c1=O)CCCC2)CC3    7.54
6. Cc1nc2n(c(=O)c1CCN1CCc3[nH]c4ccc(F)cc4c3C1)CCCC2    7.90
